- Test system: IGROV-1
- Assay Info: NCI tumour cell line growth inhibition, 48 h
Calls of active or inactive are those of the source. Rule as the data show it: active = GI50 up to about 1.1 µM and inactive = higher.
Recorded GI50 for the following compounds

Some entries whose results are on file:
Compound	GI50
ClC1=C(Cl)C(Cl)(Cl)c2c3c(c4c(c21)C(Cl)(Cl)C(Cl)=C4Cl)C(Cl)(Cl)C(Cl)=C3Cl	> 100 µM (inactive)
CC(=O)Nc1ccc(C2=N/C(=C\c3ccc(Cl)c(Cl)c3)C(=O)O2)cc1	> 100 µM (inactive)
CCOC(=O)/C(=C/Nc1c(C)n(C)n(-c2ccccc2)c1=O)C(C)=O	> 100 µM (inactive)

Request the reported GI50 associated with O=C(Cn1c2ccc(Br)cc2c2nc3ccccc3nc21)NNC(=S)NC1CCCCC1
10.7 µM (inactive)

Request the reported GI50 associated with CC(CC(=O)N1C(=O)C(C)(C)[C@@H](O)[C@H]1CC(C)C(Cl)(Cl)Cl)C(Cl)(Cl)Cl (some centres not stated)
> 100 µM (inactive)

Request the reported GI50 associated with COc1cccc(CCN2CCN(CCCc3ccccc3)CC2)c1
> 100 µM (inactive)

Request the reported GI50 associated with COc1ccc2c(c1[N+](=O)[O-])CC[C@@H]1[C@@H]2CC[C@]2(C)C(=O)CC[C@@H]12
> 18 µM (inactive)

* * *

- System: IGROV-1
- Assay Info: NCI tumour cell line growth inhibition, 48 h
Calls of active or inactive are those of the source. Cut-off read from the data, not from the text of the source: active = GI50 up to about 1.1 µM and inactive = higher.
Attribute Measured: GI50

Some entries whose results are on file:
Molecule	GI50
COc1ccc(/C=C2\NC(=S)N(CN3CCOCC3)C2=O)cc1	> 100 µM (inactive)
CCOc1ccc(C2=NN(CC)C(=O)C(C3C(=O)N(c4ccccc4)N=C3C)C2)cc1 (stereo not given)	> 100 µM (inactive)
COc1ccc2c(c1C)C(=O)C(O)(CC=C(C)C)O2 (stereo not given)	> 100 µM (inactive)
C=CCNC(=O)ON1C(=O)CCC1=O	> 100 µM (inactive)
COc1cc(/C=C2/C(=O)N(C(=O)OCc3ccccc3)C(Cc3cc(OC)c(OC)c(C)c3OC)C(=O)N2Cc2ccccc2)c(OC)c(C)c1OC (stereo not given)	> 100 µM (inactive)
COc1ccc([N+](=O)[O-])cc1[I+]c1cc([N+](=O)[O-])ccc1OC	23 µM (inactive)
CC(C)CCc1c(Cl)nc(Cl)nc1Cl	18 µM (inactive)
CCOc1ccc2[nH]c3c(C)c4ccncc4c(C)c3c2c1	1.16 µM (inactive)
Cc1cc(NC[C@H](O)[C@H](O)[C@H](O)CO)c(Sc2cc(=O)[nH]c(=O)[nH]2)cc1C	> 62.5 µM (inactive)

Pending molecule:
Request the reported GI50 associated with CC(=O)NC(CCCCNC(=O)OCc1ccccc1)C(=O)NCc1ccccc1 (stereo not given)
> 100 µM (inactive)

* * *

- System: HOP-92
- Assay Info: NCI tumour cell line growth inhibition, 48 h
Active and inactive are the calls of the source. No stated cut-off is given here; in the data, active = GI50 up to about 1.1 µM and inactive = higher.
Attribute Measured: GI50

Some entries whose results are on file:
Compound	GI50
CC1(C)N/C(=C\[N+](=O)[O-])C(C)(C)N1O	> 10 µM (inactive)
COS(=O)c1cc(Cl)cc(Cl)c1OC(=O)CSSCC(=O)Oc1c(Cl)cc(Cl)cc1S(=O)OC (stereo not given)	22.4 µM (inactive)
CCOP(=O)(Nc1ccc2oc(=O)c3ccccc3c2c1)OCC	24.6 µM (inactive)
Cc1cc(NC[C@H](O)[C@H](O)[C@H](O)CO)c(Sc2cc(=O)[nH]c(=O)[nH]2)cc1C	> 62.5 µM (inactive)
NC1C2C=CC(C2)C1C(=O)O (stereo not given)	> 100 µM (inactive)

Request the reported GI50 associated with CC(=O)Nc1ccc(-c2nnc(SCC(=O)Nc3ccc([N+](=O)[O-])cc3)o2)cc1
22.9 µM (inactive)

Request the reported GI50 associated with CC(=O)c1c(N=[N+]=[N-])c2cccc3c2n(c1=O)CCC3
31.8 µM (inactive)

Request the reported GI50 associated with CCOc1ccc2[nH]c3c(C)c4ccncc4c(C)c3c2c1
1.45 µM (inactive)

Request the reported GI50 associated with O=C(NN1C(=O)C(Cl)C1c1cccc([N+](=O)[O-])c1)c1ccccc1O (stereo not given)
> 100 µM (inactive)

Request the reported GI50 associated with COc1ccc(/C=C2\N=C3NC(=O)C(N4CCOCC4)=C(N)N3C2=O)cc1
> 100 µM (inactive)

Ref: ChEMBL document CHEMBL1201862
